# Experimental Protocol: yeast display, Sf9 membrane polyspecificity reagent, FACS + sequencing; frameworks hold sequencing errors
Quantity Name: polyreactivity (PSR sort gate)

These solved cases illustrate the format of a correct answer.
QVQLVESGGGLVQAGGSLRLSCAASGNIFDHYAMGWYRQAPGKEREMVAAISSGGSTSYADSVKGRFTITRDNAKTTVYVQMNCLKPEDTAVYYCAAESFVQYKSPKWVHRYDSWGQGTQVTVSS ... low polyreactivity
QVQLVESGGGLVQAGGSLRLSCAASGLIFGYYAMGWYRQAPGTEREFVAAIDGSDGTTYYADSVKGRFTISRDNAKNTVYLQMNSLKPEDTAVYYCNAESSSYSCDMGYDYWGQGTQVTVSS ... low polyreactivity
QVQLVESGGGLVQAGGSLRLSCAASGFIFRYYTMRWYRQAPGKERELVAVITSGGTTYYADSVKGRFTISRDNAMNTVYLQMNSLKPEDTAVSYCAADYRPRLYGVGVDYWGQGTQVTVSS ... low polyreactivity
QVQLVESGGGLVQAGGSLRLSCAASGSTLDRNTMGWYRQAPGKERELVAAITWSGGRTYYADSVKGRFTITRDNAKNTVYLQMNSLKPEDTAVYYCNKDYWKRPVDEYDYWGQGTQVTVSS ... high polyreactivity
QVQLVESGGGLVQAGGSLRLSCAASGRIFLYYAMGWYRQAPGKERELVAAITSSGGGTYYADSVKGRFTISRDNAKNTVYLQMNSLKPEDTAVYYCAARRRSQWRYYYWGQGTQVTVSS ... high polyreactivity
QVQLVESGGGLVQAGGSLRLSCAASGSIFPDYTMGWYRQAPGKERELVAAITRSGDSTYYADSVKGRFTISRDNAKNTVYLQMNSLKPEDTAVYYCARDAFSVSDFSYASIEYDYWGQGTQVTVSS ... low polyreactivity
QDQLEESGGGLVQAGGSLRLSCAASGSTCVKYARGWYRPAPGKERELVAAISTRGGTTYYADSVKGRFTISRDNAKNTVYLQMNSLKPEDTAVYYCATGSYSRGVAYGYWGQGTQVTVSS ... high polyreactivity
QVQLVDSAGGLVQAGGILRLSCAASGFTFDAKSRGWYRQAPGTERELVDAISLSDGSTYYADSVKGRFTISRDNAKNTVYLQMNSLKPEDTAVYYCNAERFGSGLAWLLFDYWGQGTQVTVSS ... low polyreactivity

Hey, quick one: what's polyreactivity (PSR sort gate) for each of these?
1. QVQLVESGGALVQAGGSLGLICAASGSIFRWYAMGWYRQAPGKERELVASINSSGDRTYYADSVKGRFTISRDKAKKTVFLQMNSLNPEDTAVYNCAAQISVKVDFWGQGTQVTVSS
2. QVQLVESGGGLVQAGGSLRLSCAASGRTALRNAMGWYRQAPGKEREFVADIRWSGGSTYYADSVKGRFTISRDKAKNTVYLQMNSQKPEDTAVYYCAAGYVRYPYWYYYWGQGTQVTVSS
3. QVQLVESAGGLVQAGGSLRLSCAASGLIIYYYAMGWYRPAPGKERELVAAISGSSGASTYYADSVKGRFTISRDNAKNTVYLQMNSLKPEDTAVYYCNADWARLWIRSTEFDYWGQGTQVTVSS
4. QVQLVESGGGLVQAGGSLRLSCAASGRTFKRYAMGWYRQAPGKERELVARITYSGARTYYADSVKGRFTISRDNAKNTVYLQMNSLKPEDTAVYYCAAQQYWTSQYFRSATFDYWGQGTQVTVSS
5. QVQLVESGGGLVQAGGSLRLSCAASGIISSFYAMGWYRQAPGKERELVAAINWSGDSTYYADSVKGRFTISRDNAKNTVYLQMNSLKPEDTAVYYCAADYYGFYDEHDYWGQGTKVTVSS
6. QVQLEESGGGLVQAGGSLRLSCAASGINLTGYTMGWYRKATGKERQLVAAITYGGTSTYYADSVKGRFTISRDNAKNTVYLQMNSLKPEDTAVYYCAALYRGPRYGYWGQGTQVTVSS

["high polyreactivity", "high polyreactivity", "low polyreactivity", "high polyreactivity", "low polyreactivity", "high polyreactivity"]
